system tested: murine E^d MHC class II allele (Mus musculus, UniProt P01904+P01915)
Sequence (P01904 26-255): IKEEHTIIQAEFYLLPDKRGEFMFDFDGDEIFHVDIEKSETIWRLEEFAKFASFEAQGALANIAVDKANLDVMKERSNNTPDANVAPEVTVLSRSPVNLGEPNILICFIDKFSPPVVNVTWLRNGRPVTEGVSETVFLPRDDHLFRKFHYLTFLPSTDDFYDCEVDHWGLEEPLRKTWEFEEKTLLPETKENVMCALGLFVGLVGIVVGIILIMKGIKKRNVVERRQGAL
Sequence (P01915 27-264 limits assumed): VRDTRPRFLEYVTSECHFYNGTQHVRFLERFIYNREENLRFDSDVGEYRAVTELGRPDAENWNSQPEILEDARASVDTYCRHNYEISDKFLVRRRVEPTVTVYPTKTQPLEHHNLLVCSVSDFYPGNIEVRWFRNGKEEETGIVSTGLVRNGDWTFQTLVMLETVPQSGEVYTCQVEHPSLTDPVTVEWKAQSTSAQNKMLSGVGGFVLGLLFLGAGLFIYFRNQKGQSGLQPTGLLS
experiment notes: antigenic peptide prepulse assay, E^d allele (fixed APC prepulsed with HEL106-116)
Assay type: cell-based
Set-up: The A20 and CH27 B cell lymphoma lines express H-2^d and H-2^k alleles, respectively; endogenous in cells; host or cells: A20 B cell lymphoma (mitomycin C-treated or paraformaldehyde-fixed)
experimental parameters: Table 25; AE peptide 64 μM; prepulse 24 μM antigenic peptide; supernatant 1:4
Experimental: In a second type of assay, the “peptide prepulse assay”, the antigenic peptide is incubated with paraformaldehyde-fixed APC for 6 h. The APC are washed and incubated for 24 h with the AE101 series homolog and the T cell hybridoma specific for the antigenic peptide. […] Antigenic peptide-specific T cell activation was measured by the following procedure. […]
attribute measured: Activity in antigenic peptide prepulse assay, E^d (baseline = 1.00)
One number for each entry.

Consider the following illustrative entries.
{"substance": "Ac-LR N KLPK-NH2 (Ac-LRNKLPK-NH2) [AE202]", "recorded measurement": 0.30}
{"substance": "Ac-LRMK Y PK-NH2 (Ac-LRMKYPK-NH2; not fully specified; printed as Ac-LRMK Y PK-NH2) [AE235]", "recorded measurement": 0.25}
{"substance": "Ac-ARNKNPF-NH2 [AE347]", "recorded measurement": 0.64}
{"substance": "Ac-ARNKLPK-NH2 [AE344]", "recorded measurement": 0.46}
{"substance": "Ac-LRNKNPF-NH2 [AE348]", "recorded measurement": 0.39}

Provide the reported Activity in antigenic peptide prepulse assay, E^d (baseline = 1.00) of each entry below, same order.
1. Ac-LRLKYPK-NH2 [AE301]
2. Ac-ARMKLPKSAK-NH2 [AE120]

result:
1. 0.66
2. 0.63

----------
Tested on: HLA-DR1 molecules
experiment notes: exchange of biotinylated hMBP(90-102) into antigenic peptide-loaded HLA-DR1 (assay III)
Format: binding, human
experimental parameters: Table 38; HLA-DR1 preloaded with unlabeled hMBP(90-102) 50 μM; exchange with biotin-labeled hMBP(90-102) 50 μM, 37° C., 1 h; fraction of positive control o.d.; no enhancement = 0.08
No end group written: not given here.
Field: Relative Binding. Provide a value for each of the substances that follow.
Answers are plain numbers.

Consider the following illustrative entries.
{"substance": "Ac-LRMK Y PK-NH2 (Ac-LRMKYPK-NH2; not fully specified; printed as Ac-LRMK Y PK-NH2) [AE235]", "recorded measurement": 0.15}
{"substance": "AE405: comprising residue positions 5 through 12 of AE101 (LPKSAKPV)", "recorded measurement": 0.57}
{"substance": "YRMKLPKSAKPV [AE107]", "recorded measurement": 1.04}
{"substance": "AE403 (MKLPKPPKPV)", "recorded measurement": 0.40}
{"substance": "AE100 (YRMKLPKPPKPVSKMR)", "recorded measurement": 0.31}
{"substance": "AE402 (LRMKLPKPPKPV)", "recorded measurement": "−0.03"}
{"substance": "YRMKLPKSAKPVSQMR [AE101]", "recorded measurement": 0.31}
{"substance": "Ac-LR L KLPK-NH2 (Ac-LRLKLPK-NH2; not fully specified; printed as Ac-LR L KLPK-NH2) [AE206]", "recorded measurement": "−0.13"}

Provide the reported Relative Binding of each entry below, same order.
1. cyclic LRMKLPK (bridge (positions not given here); also: cyclic, ring type not given here) [AE381, “head-to-tail” cyclization from the amino-terminus to the carboxyl-terminus of AE114]
2. AE401: The N-terminal portion of AE100 (LRMKLPKPP)

result:
−0.12
0.45
